# tested on: recombinant guanylate cyclase reporter cell line (Rattus norvegicus, UniProt P20595)
# Sequence (P20595 1-619): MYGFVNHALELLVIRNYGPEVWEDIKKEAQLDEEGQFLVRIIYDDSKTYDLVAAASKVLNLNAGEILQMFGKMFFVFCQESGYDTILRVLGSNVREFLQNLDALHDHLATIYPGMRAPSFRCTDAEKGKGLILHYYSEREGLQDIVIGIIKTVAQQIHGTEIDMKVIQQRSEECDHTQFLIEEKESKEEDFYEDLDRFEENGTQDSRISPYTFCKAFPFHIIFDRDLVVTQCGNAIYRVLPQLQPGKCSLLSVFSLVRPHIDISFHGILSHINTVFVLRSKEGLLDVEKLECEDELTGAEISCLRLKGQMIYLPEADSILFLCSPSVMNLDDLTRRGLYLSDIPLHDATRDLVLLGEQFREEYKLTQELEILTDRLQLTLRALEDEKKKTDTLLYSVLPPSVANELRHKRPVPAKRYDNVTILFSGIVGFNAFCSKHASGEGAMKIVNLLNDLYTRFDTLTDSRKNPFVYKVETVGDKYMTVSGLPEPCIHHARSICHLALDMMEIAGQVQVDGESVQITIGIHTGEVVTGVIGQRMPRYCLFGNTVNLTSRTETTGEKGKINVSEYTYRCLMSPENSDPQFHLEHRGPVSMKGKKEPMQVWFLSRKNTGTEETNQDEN
# Sequence (P19686 1-690 partner): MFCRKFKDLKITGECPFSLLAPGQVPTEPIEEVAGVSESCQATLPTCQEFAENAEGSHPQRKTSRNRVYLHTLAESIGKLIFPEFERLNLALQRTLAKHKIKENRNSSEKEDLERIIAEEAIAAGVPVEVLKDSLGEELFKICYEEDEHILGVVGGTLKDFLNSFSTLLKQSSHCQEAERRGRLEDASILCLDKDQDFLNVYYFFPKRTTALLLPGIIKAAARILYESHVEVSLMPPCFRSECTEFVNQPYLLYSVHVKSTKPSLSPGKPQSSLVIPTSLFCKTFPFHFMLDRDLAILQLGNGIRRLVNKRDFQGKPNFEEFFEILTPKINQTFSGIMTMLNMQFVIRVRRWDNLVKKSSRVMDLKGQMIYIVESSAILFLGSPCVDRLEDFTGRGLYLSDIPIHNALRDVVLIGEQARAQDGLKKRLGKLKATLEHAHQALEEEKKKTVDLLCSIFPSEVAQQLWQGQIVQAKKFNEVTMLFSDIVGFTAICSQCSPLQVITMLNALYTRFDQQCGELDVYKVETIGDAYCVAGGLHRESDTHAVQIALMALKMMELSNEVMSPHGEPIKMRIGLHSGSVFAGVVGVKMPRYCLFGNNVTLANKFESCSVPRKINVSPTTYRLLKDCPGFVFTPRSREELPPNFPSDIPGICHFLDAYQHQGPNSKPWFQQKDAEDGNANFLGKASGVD
# experimental details: Effect on a recombinant guanylate cyclase reporter cell line
# condition notes: half maximal effective concentration; in some cases mean values from individual determinations
pEC50: −log10 of the molar value. Counter-ions that a name gives are not always drawn.
reported property: pEC50

{"columns": ["molecule", "tested on", "experimental value"],
 "data": [
  ["O=C(O)c1cnn(C2CCCN(c3cc(Cl)ccc3-c3ccc(N4CCN(C(=O)[C@@H]5C[C@@H]5F)CC4)cc3)C2)c1C(F)(F)F (single isomer, unassigned) [Example 46]", "recombinant guanylate cyclase reporter cell line (Rattus norvegicus, UniProt P20595)", 7.84],
  ["O=C(O)c1cnn(C2CCCN(c3cc(Cl)ccc3-c3ccc(N4CCN(CC5C[C@@H]5F)CC4)cc3)C2)c1C(F)(F)F (single isomer, unassigned) [Example 27, hydrochloride]", "recombinant guanylate cyclase reporter cell line (Rattus norvegicus, UniProt P20595)", 7.82],
  ["O=C(O)c1cnn(C2CCCN(c3cc(Cl)ccc3-c3ccc(N4CCN(CC5CC(F)(F)C5)CC4)cc3)C2)c1C(F)(F)F (single isomer, unassigned) [Example 21, hydrochloride]", "recombinant guanylate cyclase reporter cell line (Rattus norvegicus, UniProt P20595)", 7.57],
  ["O=C(O)c1cnn(C2CCCN(c3cc(Cl)ccc3-c3ccc(N4CCN(CC5CC5C(F)(F)F)CC4)cc3)C2)c1C(F)(F)F (single isomer, unassigned) [Example 32, hydrochloride]", "recombinant guanylate cyclase reporter cell line (Rattus norvegicus, UniProt P20595)", 8.03],
  ["CCC(=O)N1CCC(c2ccc(-c3ccc(Cl)cc3N3CCCC(n4ncc(C(=O)O)c4C(F)(F)F)C3)cc2)CC1 (single isomer, unassigned) [Example 83, hydrochloride]", "recombinant guanylate cyclase reporter cell line (Rattus norvegicus, UniProt P20595)", 8.41],
  ["O=C(O)c1cnn(C2CCCN(c3cc(Cl)ccc3-c3ccc(N4CCN(CC5(F)CCC5)CC4)cc3)C2)c1C(F)(F)F (single isomer, unassigned) [Example 23, hydrochloride]", "recombinant guanylate cyclase reporter cell line (Rattus norvegicus, UniProt P20595)", 7.56]
]}

(I) CCC(=O)N1CCC(c2ccc(-c3ccc(Cl)cc3N3CCCC(n4ncc(C(=O)O)c4C(F)(F)F)C3)cc2)CC1 (single isomer, unassigned) [Example 82, hydrochloride]
(II) O=C(O)c1cnn(C2CCCN(c3cc(Cl)ccc3-c3ccc(N4CCN(CC5CCC5)CC4)cc3)C2)c1C(F)(F)F (single isomer, unassigned) [Example 19, hydrochloride]
(III) CCN1CCN(c2ccc(-c3ccc(Cl)cc3N3CCCC(n4ncc(C(=O)O)c4C(F)(F)F)C3)cc2F)CC1 (single isomer, unassigned) [Example 70]
(IV) O=C(O)c1cnn(C2CCCN(c3cc(Cl)ccc3-c3ccc(N4CCN(CC(F)(F)F)CC4)nc3)C2)c1C(F)(F)F (single isomer, unassigned) [Example 74, hydrochloride]
Q: # rank_down: sort by pEC50, max first Reply with the labels, ordered as the question asks.
A: I, IV, II, III
(I: 8.41, IV: 7.98, II: 7.58, III: 7.00)
